The values you see were collected from ChEMBL document CHEMBL3091323.

- subjectOfTest: ATP-dependent translocase ABCB1 (Homo sapiens, UniProt P08183)
- Sequence (P08183 whole entry): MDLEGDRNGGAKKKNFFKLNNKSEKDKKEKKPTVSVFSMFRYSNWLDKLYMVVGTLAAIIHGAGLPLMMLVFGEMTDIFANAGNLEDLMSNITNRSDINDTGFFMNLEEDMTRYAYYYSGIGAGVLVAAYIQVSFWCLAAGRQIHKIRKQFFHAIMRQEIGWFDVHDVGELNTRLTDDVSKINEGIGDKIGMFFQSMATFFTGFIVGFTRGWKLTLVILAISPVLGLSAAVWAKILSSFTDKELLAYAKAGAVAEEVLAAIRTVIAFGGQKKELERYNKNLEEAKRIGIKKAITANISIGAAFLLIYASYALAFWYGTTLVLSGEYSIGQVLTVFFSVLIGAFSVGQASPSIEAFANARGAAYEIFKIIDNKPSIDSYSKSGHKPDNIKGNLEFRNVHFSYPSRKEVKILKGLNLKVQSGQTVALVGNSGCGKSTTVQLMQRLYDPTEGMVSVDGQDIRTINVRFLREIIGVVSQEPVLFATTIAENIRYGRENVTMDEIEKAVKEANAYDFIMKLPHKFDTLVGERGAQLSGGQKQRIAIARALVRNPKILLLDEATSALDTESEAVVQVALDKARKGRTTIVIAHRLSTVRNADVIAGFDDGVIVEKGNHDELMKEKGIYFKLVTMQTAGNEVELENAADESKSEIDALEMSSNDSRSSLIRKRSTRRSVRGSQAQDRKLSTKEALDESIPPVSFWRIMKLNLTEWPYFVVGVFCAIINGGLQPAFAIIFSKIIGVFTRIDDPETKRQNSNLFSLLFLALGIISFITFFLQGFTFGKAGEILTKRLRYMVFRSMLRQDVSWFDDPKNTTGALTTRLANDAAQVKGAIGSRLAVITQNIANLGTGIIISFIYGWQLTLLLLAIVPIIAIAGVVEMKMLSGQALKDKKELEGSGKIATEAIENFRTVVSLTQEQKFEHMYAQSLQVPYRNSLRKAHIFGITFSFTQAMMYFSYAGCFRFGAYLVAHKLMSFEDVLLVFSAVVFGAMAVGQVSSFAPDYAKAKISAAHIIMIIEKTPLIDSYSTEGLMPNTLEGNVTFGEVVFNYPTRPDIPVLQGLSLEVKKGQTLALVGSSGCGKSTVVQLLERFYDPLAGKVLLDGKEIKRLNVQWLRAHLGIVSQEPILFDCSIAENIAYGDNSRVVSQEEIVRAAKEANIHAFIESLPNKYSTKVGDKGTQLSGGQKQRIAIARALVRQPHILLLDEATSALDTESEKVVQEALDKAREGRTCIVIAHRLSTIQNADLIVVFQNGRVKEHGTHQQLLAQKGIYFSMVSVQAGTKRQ
- experimentNotes: Inhibition of MDR1 in human doxorubicin-resistant A2780adr cells assessed as Calcein AM accumulation treated 30 mins before Calcein AM addition measured up to 90 mins by fluorescence assay
- Format: cell-based, A2780 ADR
pIC50: −log10 of the molar value.
Quick rule for you: pIC50 at 5 or higher means TRUE, lower means FALSE.

# substanceSmiles, labelValue
records = [
    ("COc1ccc(-c2nc(Nc3cccc(O)c3)c3ccccc3n2)cc1OC", "FALSE"),
]

# ---- query molecule ----
query: // inclusive: pIC50 at least 5? input: `COc1ccc(Nc2nc(-c3ccc(OC)c(OC)c3)nc3ccccc23)cc1OC`
result: TRUE
